Molecular target: T1, human c-Met, membrane-bound on cells (human, UniProt P08581 25-1390)
T1 construct: whole, on cells; A431 cells carry on average 30,000 copies of c-Met per cell (Qifi); also called c-Met expressed on A431 cells; c-Met on A549 cells
T1 sequence (P08581 25-1390): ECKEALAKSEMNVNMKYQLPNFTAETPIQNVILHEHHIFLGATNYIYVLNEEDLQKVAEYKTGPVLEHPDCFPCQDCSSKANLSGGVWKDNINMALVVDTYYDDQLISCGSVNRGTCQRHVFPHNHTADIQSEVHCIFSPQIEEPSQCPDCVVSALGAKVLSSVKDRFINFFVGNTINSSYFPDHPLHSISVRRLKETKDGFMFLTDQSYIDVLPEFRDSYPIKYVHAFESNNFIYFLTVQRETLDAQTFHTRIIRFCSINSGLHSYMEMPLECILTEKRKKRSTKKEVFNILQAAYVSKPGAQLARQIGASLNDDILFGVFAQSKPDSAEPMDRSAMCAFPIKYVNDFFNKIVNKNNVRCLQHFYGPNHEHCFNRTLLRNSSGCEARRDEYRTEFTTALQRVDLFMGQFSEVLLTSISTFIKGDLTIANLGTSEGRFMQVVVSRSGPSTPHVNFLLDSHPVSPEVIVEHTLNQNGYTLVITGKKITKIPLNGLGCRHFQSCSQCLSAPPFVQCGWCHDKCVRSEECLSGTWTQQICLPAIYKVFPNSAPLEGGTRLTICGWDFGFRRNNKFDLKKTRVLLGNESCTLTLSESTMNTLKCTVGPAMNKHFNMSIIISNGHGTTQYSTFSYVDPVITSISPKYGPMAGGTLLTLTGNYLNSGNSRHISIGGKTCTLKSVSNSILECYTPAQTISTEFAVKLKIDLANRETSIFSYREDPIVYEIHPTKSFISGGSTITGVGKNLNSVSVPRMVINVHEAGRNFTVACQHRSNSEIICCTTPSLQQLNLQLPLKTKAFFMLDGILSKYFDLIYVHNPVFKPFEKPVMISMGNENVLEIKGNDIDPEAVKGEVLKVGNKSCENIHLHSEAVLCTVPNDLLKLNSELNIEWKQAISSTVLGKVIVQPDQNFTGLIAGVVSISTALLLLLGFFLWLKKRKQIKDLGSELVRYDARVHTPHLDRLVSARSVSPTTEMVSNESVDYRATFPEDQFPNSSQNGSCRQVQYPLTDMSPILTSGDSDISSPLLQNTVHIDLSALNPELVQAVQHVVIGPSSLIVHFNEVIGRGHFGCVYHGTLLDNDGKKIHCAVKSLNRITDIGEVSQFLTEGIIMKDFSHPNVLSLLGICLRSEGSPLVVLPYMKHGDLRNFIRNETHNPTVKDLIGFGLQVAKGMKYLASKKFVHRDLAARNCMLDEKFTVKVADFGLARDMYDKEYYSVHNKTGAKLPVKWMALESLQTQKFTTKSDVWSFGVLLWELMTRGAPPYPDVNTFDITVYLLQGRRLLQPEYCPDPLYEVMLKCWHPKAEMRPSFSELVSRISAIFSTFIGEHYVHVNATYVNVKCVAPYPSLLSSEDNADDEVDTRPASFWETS
Assay: flow cytometry on A431 cells (PE goat anti-human IgG); bottom panel
endpoint: pEC50
The quantity pEC50 is defined as the negative base-10 logarithm of the molar concentration.

- binder: "IgG1-1016-069 (antibody, V domains shown, also called clone 069; TH1016-069) VH: QVQLVQSGAEVKKPGASVKVSCETSGYTFTSYGISWVRQAPGHGLEWMGWISAYNGYTNYAQKLQGRVTMTTDTSTSTAYMELRSLRSDDTAVYYCARDLRGTNYFDYWGQGTLVTVSS VL: DIQMTQSPSSVSASVGDRVTITCRASQGISNWLAWFQHKPGKAPKLLIYAASSLLSGVPSRFSGSGSGTDFTLTISSLQPEDFATYYCQQANSFPITFGQGTRLEIK"
  pEC50: 9.26
- binder: "anti-c-Met HuMab 181 (IgG1) (antibody, V domains shown, also called TH1016-181; PC1016-181) VH: QVQLVQSGAEVKKPGASVKVSCKASGYTFTSYGISWVRQAPGQGLEWMGWISTYNGYTNYAQKLQGRVTMTTDTSTSTAYMELRSLRSDDTAVYYCARDLRGTAYFDYWGQGTLVTVSS VL: DIQMTQSPSSVSASVGDRVTITCRASQGISNWLAWYQHKPGKAPKLLIYAASSLLSGVPSRFSGSGSGTDFTLTISSLQPEDFATYYCQQANSFPITFGQGTRLEIK"
  pEC50: 9.17

Now turn to the next binder.
Query block: I have this binder here, Uni-1016-069-TE (other, also called UniBody molecule of antibody 069) VH: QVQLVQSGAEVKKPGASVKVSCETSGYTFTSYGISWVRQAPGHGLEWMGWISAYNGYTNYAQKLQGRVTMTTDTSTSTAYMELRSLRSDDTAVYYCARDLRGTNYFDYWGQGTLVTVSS VL: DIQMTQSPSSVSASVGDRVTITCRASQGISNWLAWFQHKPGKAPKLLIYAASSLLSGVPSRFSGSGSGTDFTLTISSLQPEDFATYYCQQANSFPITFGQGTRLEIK , and I need its recorded pEC50.
Result block: 9.22
